Every entry's value here was drawn from paper PMC10321640.

# PROCEDURE_SUMMARY: In vivo pharmacokinetic study, plasma LC-MS/MS
# CONDITION_CONTEXT: mouse, iv, 1 nmol/g body weight, i.v., male ICR mice, mean ± SD, n = 3, read-out: MRTinf, pred
Where a SMILES comes first, the peptide text is derived from it. Bridges are numbered along the chain shown (N, C = ends).
ENDPOINT: MRT (min)
Give the value in min but do not write min after it.

Specify measured MRT for CC[C@H](C)[C@H](NC(=O)[C@H](CC(C)C)NC(=O)[C@@H]1CC(=O)NCCCC[C@@H]2NC(=O)[C@@H]3CCCN3C(=O)[C@H](CC(C)C)NC(=O)[C@H](Cc3ccc(O)cc3)NC(=O)[C@@H]3CCCN3C(=O)[C@@H]3CCCN3C(=O)[C@@H](NC(C)=O)CSSC[C@H](NC(=O)[C@H](CC(C)C)NC(=O)[C@H](Cc3ccc(O)cc3)NC2=O)C(=O)N1)C(N)=O [KS-133] (Ac-CPPYLPKYLCDLI-NH2; disulfide 1-10; lactam 7-11) .
58.8
